Response Unit (RU) overview
system: MvfR protein (MvfRC87) (Pseudomonas aeruginosa, UniProt Q9I4X0)
Construct: The MvfRC87 protein purified as in Xiao et. al., 2006; made in house
Sequence (Q9I4X0 87-332): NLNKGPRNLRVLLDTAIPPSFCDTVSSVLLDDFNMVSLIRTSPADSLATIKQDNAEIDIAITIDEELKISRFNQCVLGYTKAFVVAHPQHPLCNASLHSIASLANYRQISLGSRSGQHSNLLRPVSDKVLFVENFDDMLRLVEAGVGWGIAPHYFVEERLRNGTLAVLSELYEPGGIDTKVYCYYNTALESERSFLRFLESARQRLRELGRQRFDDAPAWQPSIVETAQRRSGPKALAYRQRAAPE
Assay type: binding
experimentalSetup: SPR; Concentration 3.16E-08 M
Number in RU, nothing else.

Recorded results for 4 compounds are shown here.
smi=N#Cc1ccc(NC(=O)CC(=O)Nc2ccc(C#N)nc2)cc1 system="MvfR protein (MvfRC87) (Pseudomonas aeruginosa, UniProt Q9I4X0)" valuemeasured=2.2
smi=N#Cc1ccc(NC(=O)CC(=O)Nc2ccc(C(F)(F)F)cc2)cc1 system="MvfR protein (MvfRC87) (Pseudomonas aeruginosa, UniProt Q9I4X0)" valuemeasured=4.1
smi=N#Cc1ccc(NC(=O)CC(=O)Nc2cccc(Cl)c2)cc1 system="MvfR protein (MvfRC87) (Pseudomonas aeruginosa, UniProt Q9I4X0)" valuemeasured=3.1
smi=N#Cc1ccc(NC(=O)CC(=O)Nc2ccc(Oc3ccccc3)cc2)cc1 system="MvfR protein (MvfRC87) (Pseudomonas aeruginosa, UniProt Q9I4X0)" valuemeasured=2.9

The recorded Response Unit (RU) for Cc1cc(F)ccc1NCC(=O)Nc1ccc(C#N)cc1 is 0.7

====

System: pyocyanin production in PA14
assayInfo: Pyocyanin production assay
experimentalSetup: Pseudomonas aeruginosa, PA14, read-out: IC50 pyocyanin production
IC50 overview
Number in µM, nothing else.

compound="N#Cc1ccc(NC(=O)C(F)C(=O)Nc2ccc(Oc3ccccc3)cc2)cc1 (centres unmarked)" recordedendpoint=IC50 valuemeasured=0.53
compound=N#Cc1ccc(NC(=O)CC(=O)Nc2ccc(Oc3ccccc3)cc2)cc1 recordedendpoint=IC50 valuemeasured=0.24
compound="O=C(Nc1ccc(Oc2ccccc2)cc1)C(F)C(=O)Nc1ccc(C(F)(F)F)cc1 (centres unmarked)" recordedendpoint=IC50 valuemeasured=0.38
compound=N#Cc1ccc(NC(=O)CC(=O)Nc2ccc(C#N)c(Cl)c2)cc1 recordedendpoint=IC50 valuemeasured=0.9

Please examine the following record next.
The recorded IC50 for N#Cc1ccc(NC(=O)CC(=O)Nc2ccc(C#N)cc2)cc1 is 1.38

====

assayInfo: Solubility in iPBS pH 7.4 by HPLC
Type: physicochemical
experimentalSetup: isotonic phosphate buffer (iPBS), pH 7.4; HPLC; read-out: solubility
recordedEndpoint: solubility at 4 h (µM)
Number in µM, nothing else.

The recorded solubility at 4 h for N#Cc1ccc(NC(=O)C(F)C(=O)Nc2ccc(Oc3ccccc3)cc2)cc1 (stereo not shown) is 490

====

System: PA14 AT/P cells
assayInfo: AT/P cells formation assay in PA14
Assay type: cell-based, Pseudomonas aeruginosa
experimentalSetup: Pseudomonas aeruginosa, PA14, 24 h, read-out: inhibition of AT/P cells formation
recordedEndpoint: inhibition at 10 µM

compound=N#Cc1ccc(NC(=O)CC(=O)Nc2ccc(C(F)(F)F)cc2)cc1 recordedendpoint="inhibition at 10 µM" valuemeasured="≥ 76%"
compound=CC(C(=O)Nc1ccc(C#N)cc1)C(=O)Nc1ccc(C#N)cc1 recordedendpoint="inhibition at 10 µM" valuemeasured="≥ 51%"
compound="O=C(Nc1ccc(Oc2ccccc2)cc1)C(F)C(=O)Nc1ccc(C(F)(F)F)cc1 (centres unmarked)" recordedendpoint="inhibition at 10 µM" valuemeasured="≥ 51%"
compound=N#Cc1ccc(NC(=O)CC(=O)Nc2ccc(C#N)c(Cl)c2)cc1 recordedendpoint="inhibition at 10 µM" valuemeasured="≥ 51%"

The recorded inhibition at 10 µM for N#Cc1ccc(NC(=O)CC(=O)Nc2ccc(C#N)nc2)cc1 is ≥ 51%
